So I've got a bunch of compounds here, and I need their inhibition values.
Target or system: SARS-CoV-2 Main Protease (SARS-CoV-2) (UniProt P0DTD1)
Condition context: 50.0 µM
Respond with the bare value in %.

Input line: What value of inhibition has been reported for the following compound? CNC(=O)c1ccc(CS(=O)(=O)NCC(F)(F)c2ccc(F)cc2F)cc1
Output line: 0

Input line: What value of inhibition has been reported for the following compound? O=C(CCl)N1CCN(Cc2cnc(-c3ccccc3)nc2)CC1
Output line: 0

Input line: What value of inhibition has been reported for the following compound? Cc1ccc(NC2CCN(c3ccc(S(N)(=O)=O)cc3)CC2)cc1
Output line: 40

Input line: What value of inhibition has been reported for the following compound? CC[P](CC)(CC)=[Au][S][C@@H]1O[C@H](COC(C)=O)[C@@H](OC(C)=O)[C@H](OC(C)=O)[C@H]1OC(C)=O (stereo in doubt)
Output line: 100

Input line: What value of inhibition has been reported for the following compound? O=C(NCc1cncs1)Nc1cccc(N2CCOCC2)c1
Output line: 23.8
